# EXPERIMENT: Approximate solubility by stepwise dilution of a suspension
# Type: physicochemical
# RUN_CONDITIONS: organic solvent or mixture, thermodynamic from solid; solvent: 2-methyl THF saturated with water
EXPERIMENTAL_ENDPOINT: solubility

Consider the molecule CN[C@]1(c2ccccc2Cl)CCCCC1=O [monohydrate] and give its measured solubility.
6000 to 8000 µg/mL

----------
# EXPERIMENT: Approximate solubility by stepwise dilution of a suspension
# Assay type: physicochemical
# RUN_CONDITIONS: organic solvent or mixture, thermodynamic from solid; solvent: 10:1 2-propanol:water
EXPERIMENTAL_ENDPOINT: solubility

Consider the molecule CN[C@]1(c2ccccc2Cl)CCCCC1=O [monohydrate] and give its measured solubility.
24 to 28 mg/mL

----------
# EXPERIMENT: Approximate solubility by stepwise dilution of a suspension
# Assay type: physicochemical
# RUN_CONDITIONS: organic solvent or mixture, thermodynamic from solid; solvent: 2-methyl-THF
EXPERIMENTAL_ENDPOINT: solubility

Consider the compound CN[C@]1(c2ccccc2Cl)CCCCC1=O [monohydrate] and give its measured solubility.
5000 to 7000 µg/mL

----------
# EXPERIMENT: Approximate solubility by stepwise dilution of a suspension
# Type: physicochemical
# RUN_CONDITIONS: organic solvent or mixture, thermodynamic from solid; solvent: anisole
EXPERIMENTAL_ENDPOINT: solubility

Consider the compound CN[C@]1(c2ccccc2Cl)CCCCC1=O [monohydrate] and give its measured solubility.
< 1000 µg/mL

----------
# EXPERIMENT: Approximate solubility by stepwise dilution of a suspension
# Type: physicochemical
# RUN_CONDITIONS: organic solvent or mixture, thermodynamic from solid; solvent: TBME
EXPERIMENTAL_ENDPOINT: solubility

Consider the compound CN[C@]1(c2ccccc2Cl)CCCCC1=O [monohydrate] and give its measured solubility.
< 1000 µg/mL

----------
# EXPERIMENT: Approximate solubility by stepwise dilution of a suspension
# Assay type: physicochemical
# RUN_CONDITIONS: organic solvent or mixture, thermodynamic from solid; solvent: ethyl acetate
EXPERIMENTAL_ENDPOINT: solubility

Consider the compound CN[C@]1(c2ccccc2Cl)CCCCC1=O [monohydrate] and give its measured solubility.
< 1000 µg/mL

----------
# EXPERIMENT: Approximate solubility by stepwise dilution of a suspension
# Format: physicochemical
# RUN_CONDITIONS: organic solvent or mixture, thermodynamic from solid; solvent: toluene
EXPERIMENTAL_ENDPOINT: solubility

Consider the compound CN[C@]1(c2ccccc2Cl)CCCCC1=O [monohydrate] and give its measured solubility.
< 1000 µg/mL

----------
# EXPERIMENT: Approximate solubility by stepwise dilution of a suspension
# Assay type: physicochemical
# RUN_CONDITIONS: organic solvent or mixture, thermodynamic from solid; solvent: methanol
EXPERIMENTAL_ENDPOINT: solubility

Consider the compound CN[C@]1(c2ccccc2Cl)CCCCC1=O [monohydrate] and give its measured solubility.
> 226 mg/mL

----------
# EXPERIMENT: Approximate solubility by stepwise dilution of a suspension
# Format: physicochemical
# RUN_CONDITIONS: organic solvent or mixture, thermodynamic from solid; solvent: 1:1 2-propanol:isopropyl acetate
EXPERIMENTAL_ENDPOINT: solubility

Consider the compound CN[C@]1(c2ccccc2Cl)CCCCC1=O [monohydrate] and give its measured solubility.
10 to 11 mg/mL

----------
# EXPERIMENT: Approximate solubility by stepwise dilution of a suspension
# Type: physicochemical
# RUN_CONDITIONS: organic solvent or mixture, thermodynamic from solid; solvent: 1,4-dioxane
EXPERIMENTAL_ENDPOINT: solubility

Consider the molecule CN[C@]1(c2ccccc2Cl)CCCCC1=O [monohydrate] and give its measured solubility.
5000 to 6000 µg/mL

----------
# EXPERIMENT: Approximate solubility by stepwise dilution of a suspension
# Type: physicochemical
# RUN_CONDITIONS: organic solvent or mixture, thermodynamic from solid; solvent: acetonitrile
EXPERIMENTAL_ENDPOINT: solubility

Consider the compound CN[C@]1(c2ccccc2Cl)CCCCC1=O [monohydrate] and give its measured solubility.
22 to 24 mg/mL

----------
# EXPERIMENT: Approximate solubility by stepwise dilution of a suspension
# Type: physicochemical
# RUN_CONDITIONS: 10:1 acetone:water, organic solvent or mixture, thermodynamic from solid; solvent: 10:1 aectobne:water
# Method: The approximate solubility of the monohydrate crystalline form of the (S)-CSA salt of S-ketamine was measured by stepwise dilution of a suspension of about 10 mg of the sample in 0.05 mL solvent. Table 4 below lists the approximate solubility, denoted “S”. If a sample was not dissolved by addition of a total of 10-12 mL of solvent, the solubility is indicated as <1 mg/mL in the Table 4, below.
EXPERIMENTAL_ENDPOINT: solubility

Consider the compound CN[C@]1(c2ccccc2Cl)CCCCC1=O [monohydrate] and give its measured solubility.
20 to 24 mg/mL

----------
# EXPERIMENT: Approximate solubility by stepwise dilution of a suspension
# Assay type: physicochemical
# RUN_CONDITIONS: aqueous with cosolvent or surfactant or cyclodextrin, thermodynamic from solid; solvent: 1:1 2-propanol:water
EXPERIMENTAL_ENDPOINT: solubility

Consider the molecule CN[C@]1(c2ccccc2Cl)CCCCC1=O [monohydrate] and give its measured solubility.
93 to 189 mg/mL

----------
# EXPERIMENT: Approximate solubility by stepwise dilution of a suspension
# Assay type: physicochemical
# RUN_CONDITIONS: organic solvent or mixture, thermodynamic from solid; solvent: DMF
# Method: The approximate solubility of the monohydrate crystalline form of the (S)-CSA salt of S-ketamine was measured by stepwise dilution of a suspension of about 10 mg of the sample in 0.05 mL solvent. Table 4 below lists the approximate solubility, denoted “S”. If a sample was not dissolved by addition of a total of 10-12 mL of solvent, the solubility is indicated as <1 mg/mL in the Table 4, below.
EXPERIMENTAL_ENDPOINT: solubility

Consider the compound CN[C@]1(c2ccccc2Cl)CCCCC1=O [monohydrate] and give its measured solubility.
91 to 185 mg/mL

----------
# EXPERIMENT: Approximate solubility by stepwise dilution of a suspension
# Format: physicochemical
# RUN_CONDITIONS: organic solvent or mixture, thermodynamic from solid; solvent: isopropyl acetate
# Description: The approximate solubility of the monohydrate crystalline form of the (S)-CSA salt of S-ketamine was measured by stepwise dilution of a suspension of about 10 mg of the sample in 0.05 mL solvent. Table 4 below lists the approximate solubility, denoted “S”. If a sample was not dissolved by addition of a total of 10-12 mL of solvent, the solubility is indicated as <1 mg/mL in the Table 4, below.
EXPERIMENTAL_ENDPOINT: solubility

Consider the compound CN[C@]1(c2ccccc2Cl)CCCCC1=O [monohydrate] and give its measured solubility.
< 1000 µg/mL

----------
# EXPERIMENT: Approximate solubility by stepwise dilution of a suspension
# Assay type: physicochemical
# RUN_CONDITIONS: aqueous with cosolvent or surfactant or cyclodextrin, thermodynamic from solid; solvent: 1:1 acetone:water
EXPERIMENTAL_ENDPOINT: solubility

Consider the compound CN[C@]1(c2ccccc2Cl)CCCCC1=O [monohydrate] and give its measured solubility.
58 to 77 mg/mL

Origin of measurements: patent US10815196B2
